Biological target: T1, MICA*008 expressed at the cell surface (human, UniProt Q29983 24-297)
T1 construct: also called C1R-MICA*008; C1R-MICA*08
T1 chain: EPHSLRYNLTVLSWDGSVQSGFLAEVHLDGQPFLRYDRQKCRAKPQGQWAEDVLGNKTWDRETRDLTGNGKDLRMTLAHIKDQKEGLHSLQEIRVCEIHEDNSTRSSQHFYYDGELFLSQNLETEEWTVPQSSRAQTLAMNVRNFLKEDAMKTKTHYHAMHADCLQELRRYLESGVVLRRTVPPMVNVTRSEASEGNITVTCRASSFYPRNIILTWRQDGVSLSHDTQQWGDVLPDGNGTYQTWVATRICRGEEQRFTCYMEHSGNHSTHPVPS
Assay: flow cytometry on C1R transfectant cells, 4-parameter logistic fit
OBSERVED PROPERTY: EC50 (µg/mL)
The reply should be a number in µg/mL, with the unit left off.

Consider the reported EC50 for these binders:
BINDER	QUANTITATIVE RESULT
CHG1-M-MIA-12A10 (antibody, human IgG1, V domains shown, the VH entry ends with ASTK) VH: QVQLQQSGADLVRPGASVRLSCRASGYSFTNYWMNWVKQRPGQGLEWIGMIHPSDSETRLNQKFKDKATLTVDKSSNTAYMQLSSPTSEDSAIYYCARDDFFTMDYWGQGTSVTVSS VL: DILLTQSPAILSVSPGERVSFSCRASQNIVTSIHWYQQSTNGSPRLLIKYASESISGIPSRFSGSGSGTDFTLTINSVESEDVADYYCQQSNIWPLTFGAGTKLELK	0.25
CHG1-M-MIA-10F3 (antibody, human IgG1, V domains shown, the VH entry ends with ASTK) VH: QVQLQQSAAELARPGASVKMSCKASGYTFTSYTMHWVKQRPGQGLEWIGYINPSSGYTEYNQKFKDKTTLTVDKSSTTSYMQLSSLTSDNSAVYYCARGGDWDVDWFVYWGQGTLVTVSA VL: QIVLTQSPAIMSASPGEKVTITCSASSSISYMHWFQQKPGTSPKLWIYSTSKLASGVPARFSGSGSGTSHSLTISRMEAEDAATYYCQHRSTYPFTFGSGTKLEIK	0.26
CHG1-M-MIA-18E8 (antibody, human IgG1, V domains shown, the VH entry ends with ASTK) VH: DVQLQESGPDLVNPSQSLSLICTVTGYSITSDYSWHWIRQFPGNKLEWMGNIHYSGRINYNPSLRSRISITRDTSKNQFFLQLISVTTEDTATYYCATRRTFGNFEDYWGQGTTLTVSS VL: QIVLSQSPATLSVSPGEKVTMTCRSSSSVNYMHWYQQKPGSSPKPWIYATSTLASGVPARFSGSGSGTSYSLTISRVEAEDAATYYCQQWSSNPLTFGAGTKLELK	0.24
CHG1-M-MIA-14B4 (antibody, V domains shown, the VH entry ends with ASTK) VH: QVQLQQPGAELVRPGASVKLSCKASGYSFTSYWMNWMKQRPGQGLEWIGMIHPSDSETRLNQKFKDKATLTVDKSSSTAYMQLNSPTSEDSAVYYCAREMGPYTLDYWGQGTSVTVSS VL: DILLTQSPAILSVSPGARVSFSCRASQNIDTSIHWYQQRTNGSPRLLIKYASESISGIPSRFSGSGSGTDFTLSINSVESEDIADYYCQQSNYWPLTFGAGTKLELK	0.3
CHG1-M-MIA-15F9 (antibody, human IgG1, V domains shown, the VH entry ends with ASTK) VH: DVQLQESGPDLVKPSQSLSLTCTVTGYSITSGYSWHWIRQFPGNKLEWMGFIHYSGSTDYNPSLKSRISLTRDTSKNQFFLQLNSVSTEDTATYYCAKDYGHWYFDVWGAGTTVTVSS VL: SIVMTQTPKFLLVSAGDRVTITCKASQSVSYDVAWYQQKPGQSPKLLIFYASNRYTGVPARFTGSGYGTDFTFTISTVQAEDLAVYFCQQDYSSLTFGAGTKLELK	0.79
CHG1-M-MIA-20C6 (antibody, V domains shown, also called chimeric anti-MICA 20C6) VH: QITLKESGPGILKPSQTLSLTCSFSGFSLSTSGMGVGWIRQPSGKGLEWLAHIWWDDDKYYNPSLKSQLTISKDTSRNQVFLRITSVDTADTATYYCARRTQGYFDYWGQGTTLTVSS VL: DIVMTQSPATLSVTPGDRVSLSCRASQSISDYLHWYQQKSHESPRLLIKYASQSISGIPSRFSGSGSGSDFTLSINSVEPEDVGVYYCQNGHSFPWTFGGGTKLEIKR	0.13

Request: Given CHG1-M-MIA-9C10 (antibody, human IgG1, V domains shown, also called chimeric anti-MICA 9C10) VH: QVQLQQPGAELVRPGTSVNLSCKASGYSFTRYWMNWVKQRPGQGLEWIGMIHPSDSETRLNQKFKDKATLTVDKSSSTAYMQLSSPTSEDSAVYYCGYGNFFYVMDYWGQGTSVTVSS VL: DILLTQSPAILSVSPGERVSFSCRASQSIGTSIHWYQQRTNGSPRLLIKFASESISGIPSRFSGSGSGTDFTLNINSVESEDIADYYCQQSNFWPFTFGSGTKLEVK , state its recorded EC50.
Result: 0.13
